# protocolNotes: Tmax in Swiss mouse at 50 mg/kg, po by LC-MS/MS analysis
# Assay type: ADME, organism-based
# assayConditions: in vivo
readoutKind: Tmax (h)
Lab book: enter the figure in h, no units written.

What the record says about COc1ccc(C2C3=C(CCC3=O)Nc3c2c(-c2c[nH]c4ccccc24)nn3-c2ccc(Cl)c(Cl)c2)cc1OC (stereo unspecified) : Tmax is 1.75

###

# System: Leishmania donovani
# protocolNotes: Antileishmanial activity against Leishmania donovani MHOM/IN/80/DD8 amastigote forms harboring luciferase gene infected in mouse J774 cells at 25 uM after 72 hrs by Steady-Glo reagent based luminescence assay relative to control
# Type: functional
# assayConditions: MHOM/IN/80/DD8, J774, 72 h, read-out: GI
readoutKind: inhibition of growth at 25 µM

Some solved entries appear below for comparison.
> print(dat)
                                   molecule  observedmeasurement
1  COc1ccc(OC)c(C2C3=C(CC(C)(C)CC3=O)Nc3c2c(-c2c[nH]c4ccccc24)nn3-c2ccc(Cl)c(Cl)c2)c1 (stereo not drawn)                91.5%
2  COc1ccc(-c2c3c(nc4c2c(-c2c[nH]c5ccccc25)nn4-c2ccc(Cl)c(Cl)c2)CCC3=O)cc1OC                20.8%
3  CCCCCCCCCCCCCCCCOP(=O)([O-])OCC[N+](C)(C)C [MILTEFOSINE]                99.8%
4  COc1ccc(OC)c(-c2c3c(nc4c2c(-c2c[nH]c5ccccc25)nn4-c2ccc(Cl)c(Cl)c2)CC(C)(C)CC3=O)c1                24.6%
5  COc1ccc(OC)c(-c2c3c(nc4c2c(-c2c[nH]c5ccccc25)nn4-c2ccc(F)cc2)CC(C)(C)CC3=O)c1                22.4%
6  COc1ccc(C2C3=C(CCC3=O)Nc3c2c(-c2c[nH]c4ccccc24)nn3-c2ccc(Cl)c(Cl)c2)cc1OC (stereo not drawn)                96.8%
7  CC1(C)CC(=O)C2=C(C1)Nc1c(c(-c3c[nH]c4ccccc34)nn1-c1ccc(Cl)cc1)C2c1cccs1 (stereo not drawn)                43.8%

inhibition of growth at 25 µM in this record for COc1cc(C2C3=C(CCC3=O)Nc3c2c(-c2c[nH]c4ccccc24)nn3-c2ccc(Cl)cc2)cc(OC)c1O (stereo not drawn) : 25.2%

###

# protocolNotes: Cytotoxicity against mouse J774 cells assessed as cell viability […] after 72 hrs by MTT assay relative to control
# Assay type: cell-based
# assayConditions: read-out: Activity
The entries below are paired with their reported viability at 72 h.

> print(dat)
                                   molecule        readoutkind  observedmeasurement
1  COc1ccc(C2C3=C(CCC3=O)Nc3c2c(-c2c[nH]c4ccccc24)nn3-c2ccc(Cl)c(Cl)c2)cc1OC (configuration not stated)  viability at 72 h                > 95%

Now for a further molecule.
Query COc1ccc(OC)c(C2C3=C(CC(C)(C)CC3=O)Nc3c2c(-c2c[nH]c4ccccc24)nn3-c2ccc(Cl)c(Cl)c2)c1 (configuration not stated) yields viability at 72 h of > 95%
